- Tested on: A498 renal
- Method notes: NCI tumour cell line growth inhibition, 48 h
Outcome measure: TGI

Exercise: Any idea what its TGI is? The molecule is `Cc1c(/C=N/NC(=O)c2cc(Br)cc(Br)c2O)c(=O)n(-c2ccccc2)n1C`
Solution: > 100 µM

Exercise: What TGI value was documented for this molecule, NC1C[C@H](n2cc(/C=C/Br)c(=O)[nH]c2=O)C[C@@H]1CO (stereo not given in full) ?
Solution: > 100 µM

Exercise: For the molecule `O=C(N/N=C(/c1ccccc1)C(F)(F)F)c1ccncc1` , what TGI is on record?
Solution: > 100 µM

Exercise: // TGI lookup, key: `COc1ccc(/C=C(/C#N)C(N)=O)cc1OC`
Solution: > 100 µM

Exercise: Give the measured TGI of COC(=O)C(=O)C1(CCC(C)=O)c2ccccc2-c2c(C)ccc(C)c21 (stereo not given) .
Solution: > 100 µM

Exercise: GET /values?readout=TGI&item= `N=c1oc2c(Cl)cc(Cl)cc2cc1C(=O)Nc1cccc2ccccc12`
Solution: 23.7 µM

Exercise: Item under review: `CN1CCC(n2cnc(-c3ccc(F)cc3)c2-c2ccnc(NCCO)n2)CC1` . Reported TGI?
Solution: > 25 µM

Exercise: Could you tell me which TGI is on file for `CC(C)c1cc(-c2n[nH]c(=O)n2-c2ccc3c(ccn3C)c2)c(O)cc1O` ?
Solution: 14 µM

Exercise: Returns the measured TGI for the input molecule. Input: CC(CCC(=O)O)[C@H]1CCC2[C@@H]3CC[C@@H]4CC(O)CC[C@]4(C)C3CC[C@@]21C (stereo not given in full)
Solution: > 100 µM

Exercise: I am curious: what TGI value has been reported for CC(=O)NC(CS/N=N/c1nc[nH]c1C(N)=O)C(=O)O (stereo not given) ?
Solution: > 100 µM
